B1: Max-interacting protein 1, residues 70 to 120; numbered along this chain, P50539 (parent)
chain: STHNELEKNRRAHLRLCLERLKVLIPLGPDCTRHTTLGLLNKAKAHIKKLE

variants of: B1; test: abundance fitness (aPCA) (normalised: wild type 0, dead -1); higher = more abundant; growth selection in yeast, the domain comes from the species named; conditions: Homo sapiens
Label Yes when abundance fitness >= -0.2; otherwise No.

* I47T | No
* G38C | No
* A43F | Yes
* L40T | No
* P29C | Yes
* K49H | No
* A12D | No
* T35E | No
* L50E | No
* N41K | Yes
* R10Q | No
* E51I | No
* R11L | Yes
* T35S | Yes
* C17M | Yes
* L37F | Yes
* K8Q | No
* R15Y | No
* P26D | No
* A12R | No
